Where do these numbers come from? They come from paper PMC12136788.

For each record, write down the corresponding log10 binding signal.
- TESTED ON: T1, UNK ZnF1-3 (human, UniProt Q9C0B0 31-174)
- T1 sequence: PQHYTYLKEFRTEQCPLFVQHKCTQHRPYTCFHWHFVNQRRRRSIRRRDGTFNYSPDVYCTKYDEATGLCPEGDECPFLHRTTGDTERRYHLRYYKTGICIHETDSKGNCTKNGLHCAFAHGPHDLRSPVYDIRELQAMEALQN
- ASSAY PROTOCOL: nsRBNS (natural sequence RNA bind-n-seq); RBNS binding buffer (assumed for nsRBNS): 25 mM Tris pH 7.5, 150 mM KCl, 3 mM MgCl2, 0.01% Triton X-100, 500 ug/ml BSA, 20 U/ml SUPERase-In, 4 C; UNK is unkempt and MSI1 is Musashi-1; names of the RNAs are library labels; protein concentration not given here; high values mean tight binding
Over roughly 24,000 sequences, “enrichment r” has its median near 0.99; the highest 2% begin near 3.7. What follows is part of a selection rich in the highest values, with near analogues and random picks from the rest.
Values below are the log10 of the recorded binding signal, with enrichment R as the unit.

{"columns": ["BINDER", "log10 binding signal"],
 "data": [
  ["110384571_110384691_763_CDS_ENSG00000138802_ENST00000265175|human|control|control (ssRNA) RNA: GGGAGUUCUACAGUCCGACGAUCUCCUGAAAGACUUUGCUGCUGGUGGUGCUGUUGUGAUGGUAGAGGUGGAAGUGGCGAUGGAUGGCUGAUAGCUGUAUUUUGACCAGAGAAUGAAUUAUCUUUAACUGGCCUAACAGUCGGCAACAGAGGAUUGAGCAUCA", 0.06],
  ["chrX:102931482:102931483:-_ENSG00000123562_ENST00000441076|hu_hu|FALSE|FALSE (ssRNA) RNA: GGGAGUUCUACAGUCCGACGAUCAAUUGCAUCUACAUUUUUCUUGGCAGGGAGUUGAAACAGCUGCUUCUGCCUGGUAACUAAGUCCCAGUCCUCAACAAGCCAUGGUUUUAAUUCUUCAGGAAUCUUCACUUUAACCUCCAUCAACAGAGGAUUGAGCAUCA", 0.02],
  ["chr14:62153831:62153832:-_ENSMUSG00000021930_ENSMUST00000100496|mus_mus|FALSE|FALSE (ssRNA) RNA: GGGAGUUCUACAGUCCGACGAUCAUAUUUGUUUAAAUAAGAUUAAAUAAGUUGCCUAGAUCUUUUAAACCAAACCUCAGCAUGGUAUAAUGAAUACAUGGGUUCCUUGGACAACAAUUAGAAGCUCAGUGUUCAGCAUGUGUUCAACAGAGGAUUGAGCAUCA", -0.01],
  ["chr13:100200574:100200575:-_ENSMUSG00000052727_ENSMUST00000064762|mus_hu|motif|central (ssRNA) RNA: GGGAGUUCUACAGUCCGACGAUCAUAAUCUUCUUCAUCUGGGGACCUGGUUGUUUCCUCAGGCUUUUGAUAGGCAUAGCGGAAGUCACCAGGUGUCUUCCCUCCACUGUCCUUCUCCAGGCCAGGUGUGGACAAAUCUCUAUUCAACAGAGGAUUGAGCAUCA", -0.42],
  ["chr1:88750987:88750988:+_ENSMUSG00000053333_ENSMUST00000065694|mus_mus|FALSE|FALSE (ssRNA) RNA: GGGAGUUCUACAGUCCGACGAUCUGAUAAGCCUCUUGUGUCCUGUGGUAUGGGGGUGUUCUCAUCUUUCAUAACUGGAGUACUAGAAUCUUCUUUUCCUCUGUCAGGAGUAGAGAUUGACAAUUUCUUAACACCAUCAACCAGCAACAGAGGAUUGAGCAUCA", -0.07]
]}

Consider the following items and state reported log10 binding signal for each.
1. chr3:179287964:179287965:+_ENSG00000136518_ENST00000429709|hu_hu|hu_hu_hu_mus_True|18_18 (ssRNA) RNA: GGGAGUUCUACAGUCCGACGAUCCUUGAGUGGUGAGAUGGCCUCCAUGUUCUCCCUGGGCACGCGGAGGGCAUUGGUGUCUAUGUAGUAGGUGGGCCCGCCCUGCUUGCCUUUGUCGCCAUCUAUUUCCAUCAUUGUACUUCCCAACAGAGGAUUGAGCAUCA
2. chr12:67691335:67691336:+_ENSG00000111530_ENST00000540319|hu_mus|motif|central (ssRNA) RNA: GGGAGUUCUACAGUCCGACGAUCCAUGGAGUCAUUUUUGGACAACUCUGACAACAGAUGUUCAAUAAGGUCUACAAAAACGGUAUUUCCGCAGCUCAUAACUAGGUGGCCAAGAGCAAUAAUUGUUCUUUUCCUCACUGCAAGCAACAGAGGAUUGAGCAUCA
3. chr2:153237265:153237266:-_ENSMUSG00000061411_ENSMUST00000109784|mus_mus|mus_mus_mus_hu_False|8_28 (ssRNA) RNA: GGGAGUUCUACAGUCCGACGAUCAAAAAAAAAAAAAAAAAAGUGUCCUUGUGCCCAAAGUCUCAGGUGCUUGGAGUGUGGCUAGAAACAGCUCUUUUGGAUCCCACCUCUUUCAGAAACAAAAUGUCCAACUGGUGGAGGCAGCAACAGAGGAUUGAGCAUCA

[A]
1: -0.30; 2: -0.15; 3: 0.57

Consider the following items and state reported log10 binding signal for each.
1. chr1:180971808:180971809:-_ENSG00000135823_ENST00000258301|hu_mus|FALSE|FALSE (ssRNA) RNA: GGGAGUUCUACAGUCCGACGAUCUUUUCUUAUGCUCAAUUCAGUUGCAUCCAAGUUGAAUUUUCUAGGAUUUGCUUCAACUAUGCUGAUGGUUUCAUCGAGGUCCUCCAGAUCCCACUCUAUGCUGCGGAGAUUGUUCCUCAGCAACAGAGGAUUGAGCAUCA
2. chr16:1859243:1859244:-_ENSG00000063854_ENST00000397353|hu_mus|FALSE|FALSE (ssRNA) RNA: GGGAGUUCUACAGUCCGACGAUCAAUUAACUGAAAAGUAGACUGUCCUGCAUUAGCAGCAGGCCAGUCGGUUAGAAGUCCCUGUCCCAGCGUGGGUGUGCCUCAGUCCCGAGGCACCUUGAACUGGUCCUUCUCCCUGCGGAUCAACAGAGGAUUGAGCAUCA
3. chr1:109605286:109605287:-_ENSG00000197780_ENST00000461096|hu_mus|hu_hu_hu_mus_True|58_108 (ssRNA) RNA: GGGAGUUCUACAGUCCGACGAUCAAGAACAAUAACAACAUUCAGUAACCUCUUUAAAUGCAAUUAUCCUUAUUAUAAACUAAGGGCAAUAAUAAUUUAAUACCGUAAGUGAACUACACACAAAGCCUGAACCGCGAAAAUGGUCAACAGAGGAUUGAGCAUCA
4. chr7:149068622:149068623:-_ENSMUSG00000025139_ENSMUST00000001950|mus_hu|mus_mus_mus_hu_False|38_48 (ssRNA) RNA: GGGAGUUCUACAGUCCGACGAUCGUGAGGCCUCUGAGUGUGGCUUGUGGUCUGUCCUGGGUUAGAGUUGUUAAUAUCACGGAACAUACCACUUAAGGAGGUUCUGCCCCGCCUGACACCUUCAUUCCCAAUGGAGAAGAAAUCCAACAGAGGAUUGAGCAUCA

[A]
[-0.55, -0.03, 0.09, -0.15]

[Q] Recorded log10 binding signal for chr18:56819859:56819860:+_ENSG00000166562_ENST00000588875|hu_mus|hu_hu_hu_mus_True|38_38 (ssRNA) RNA: GGGAGUUCUACAGUCCGACGAUCAACCUUGAUUACUCUGUGAACUAUCGGAAUGUCUCUUCCUUCAACCUUAAAAACAACUAUUUCACCAGCUCUGAUUGGGUCUUCCCGGAAAUUCGUGAGGAACAGCAGAUCUCCUCUGUGCAACAGAGGAUUGAGCAUCA , please?
[A] -0.09
